Tested on: Human immunodeficiency virus 1
Run Description: Antiviral activity against wild type HIV1 3B infected in human MT2 cells assessed as virus-induced cytopathic effect after 5 days by XTT assay
Assay type: functional, organism-based
Test Conditions: Human immunodeficiency virus 1, 3B, MT2, 120 h
Listed molecules paired with reported pEC50
Give only the number. pEC50 is defined as minus log10 of concentration in molar units.

| Mol | Value |
| --- | --- |
| CCOP(=O)(Cc1ccc(C[C@H](NC(=O)O[C@H]2CO[C@H]3OCC[C@H]32)[C@H](O)CN(CC(C)C)S(=O)(=O)c2ccc(OC)cc2)cc1)OCC | 8.23 |
| COc1ccc(S(=O)(=O)N(CC(C)C)C[C@@H](O)[C@H](Cc2ccccc2)NC(=O)O[C@H]2CO[C@H]3OCC[C@H]32)cc1 | 9.46 |

Query: Param item = COC(=O)N[C@H](C(=O)N[C@@H](Cc1ccccc1)[C@@H](O)CN(Cc1ccc(-c2ccccn2)cc1)NC(=O)[C@@H](NC(=O)OC)C(C)(C)C)C(C)(C)C ; retrieve measured pEC50.
Response: 8.66

Numbers sourced from ChEMBL document CHEMBL3217662.
